assay: NCI Yeast Anticancer Drug Screen. Data for the rad50 strain (AID 155);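 also: 0% = growth of vehicle-only cultures of the same strain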; settings: S. cerevisiae rad50 strain growth inhibition; at 100.0 µM
Compounds without any hit were thinned out: in the full panel of roughly 79,000, 15% have a hit. Activity calls are given as the source filed them. Rule as the data show it: active = growth inhibition above about 70%; inactive = the rest.
Respond only with the outcome that fits, drawn from active, inactive

// below: answered compounds
Compound	Group label
CCOC(=O)C1=C(C)NC(C)=C(C(=O)OCC)C1c1ccc(C)cc1	active
Cc1ccc(S(=O)(=O)N(C)c2ccc(Cl)cc2C2=NCCc3ccccc32)cc1	active

# input for lookup
Fill in: this test's call for CNc1ccc(Cc2c[nH]c3ccccc23)cc1 is ___
inactive

* * *

Exercise: state measured growth inhibition for each of the compounds provided.
Experiment: NCI Yeast Anticancer Drug Screen. Data for the bub3 strain (AID 167)
Settings: S. cerevisiae bub3 mutant strain, at 33.0 µM, active compounds read high
Experimental: Growth inhibition of yeast strains with defined genetic alterations is measured as a screen for potential anti-cancer activity. Selected strains with alterations in DNA damage repair or cell cycle control were exposed to compounds and growth inhibition was measured relative to vehicle treated controls. The strain used in this assay is bub3
Compounds without any hit were thinned out: in the full panel of roughly 79,000, 15% have a hit.
Answers are plain numbers, in %.

Example compounds with recorded growth inhibition:
Compound	Unit symbol	growth inhibition
Clc1c(Cl)c(Cl)c2c(nnn2C2CCCO2)c1Cl (configuration not stated)	%	11
CCC(=O)N(c1ccccc1)C(C)CN1CCC(O)(c2cccc(C(F)(F)F)c2)CC1 (configuration not stated)	%	49
O=C(NC(=S)Nc1ccccn1)c1ccccc1	%	5

Dear colleague, could you please provide growth inhibition for the compounds listed below?
1. O=C1c2c(O)cccc2-c2nn(CCNCCO)c3ccc(NCCNCCO)c1c23
2. CC(C)(C)c1ccc(O)c(C(c2ccc([N+](=O)[O-])cc2)c2cc(C(C)(C)C)ccc2O)c1
3. CC(=O)c1cc2c(Cl)cc(Cl)cc2oc1=O

[-30, 88, -25]

Can you give me growth inhibition for all of these, one by one?
1. NCc1c(O)ccc2ccccc12
2. COc1ccc2oc(-c3ccc(Cl)cc3)c(N3CCN(C)CC3)c2c1
3. S=C(S)NCC1CCC(CNC(=S)S)CC1 (configuration not stated)
4. Cc1cc(O)c2c(c1O)C(=O)C13C(=C2O)C(=O)C2C(O)C1C1C(O)C3C(=O)C3=C(O)c4c(O)cc(C)c(O)c4C(=O)C321 (configuration not stated)
5. Nc1nc(N)c2c(n1)CCC(S(=O)(=O)c1ccc3ccccc3c1)C2 (configuration not stated)
6. OC(CN1CCCCC1)c1cc(Cl)c(Cl)c(Cl)c1 (configuration not stated)
7. O=S(=O)(N/N=C/c1cccc(Cl)c1)c1ccccc1
8. CCCCCCCCCCCCCC(=O)OC(C)CCC1CCCO1 (configuration not stated)

[79, 99, 63, 82, 3, 38, 79, -1]

Could you report growth inhibition for every entry in the following list?
1. Cc1ccc(Nc2c3c(c(C#N)c4nc5ccccc5n24)CCCC3)cc1
2. CN(C)c1ccc(N=Nc2ccccn2)cc1
3. COc1ccc(N2CN(C)CSC2=S)cc1

1. 74
2. 95
3. 32

* * *

Kindly supply the reported growth inhibition values for the records listed here.
experiment: NCI Yeast Anticancer Drug Screen. Data for the rad52 strain (AID 147);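 also: 0% = growth of vehicle-treated control cultures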; conditions: S. cerevisiae rad52 mutant growth inhibition; at 1.2 µM; active compounds read high
This is part of a sample that, as a whole, favours compounds with a hit. Of some 79,000 tested, about 15% had one in any assay.
Numbers only, in %.

Use these answered entries as a reference point.
Molecule	growth inhibition, %
COc1cc(NCc2ccc3nc(N)nc(N)c3c2C)cc(OC)c1OC	1
O=C1C=CC(=O)N1c1ccc2c(c1)OCO2	11
O=C(/C=C/c1cccc2ccccc12)c1ccc(Cl)cc1	7
N#C/C(=C/N1C(=O)/C(=C/c2ccc([N+](=O)[O-])cc2)SC1=S)c1nc2ccccc2s1	5
O=C1C(Cl)=C(Cl)C(Cl)(Cl)C(Cl)C1(Cl)Cl (stereo unspecified)	14

Return reported growth inhibition; argument: CN=C(N)N/N=C(\C)c1ccc2oc3ccc(/C(C)=N/NC(N)=NC)cc3c2c1
11
